# targetSystem: GST-ANAC092(1-176) (Arabidopsis thaliana, UniProt Q9FKA0 1-176)
# Sequence: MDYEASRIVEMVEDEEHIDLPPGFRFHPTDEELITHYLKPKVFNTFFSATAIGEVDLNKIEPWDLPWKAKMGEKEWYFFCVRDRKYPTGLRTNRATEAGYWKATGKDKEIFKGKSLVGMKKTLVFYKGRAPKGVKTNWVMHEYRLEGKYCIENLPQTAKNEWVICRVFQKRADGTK
# procedureSummary: universal protein binding microarray (PBM); transcription factors of Arabidopsis thaliana; high values mean tight binding
# particulars: protein: recombinant; tags: GST; chain copies: 2; dsDNA, one strand shown
recordedMetric: binding signal (E-score)
# number only, unit E-score dropped from output

Identify the reported binding signal for the following entry. `ATTGCTTG`
0.355

Report measured binding signal; entry is `GTTGACCA`
0.131

Report measured binding signal; entry is `ACGCTACT`
0.385

Tell me measured binding signal for `GCGTCAAC` please.
0.119

State, in one line, measured binding signal of `CCACGCCA`
0.372

Look up and state reported binding signal for `ATAACGTA`
0.418

Input `AAGGAAAT` , output reported binding signal.
0.191

Hello, please tell me recorded binding signal for this one: `CGCACGCA`
0.401

Item `ATTGCGTG` : provide binding signal
0.494

Specify measured binding signal for `CACGCCAC` .
0.481

Indicate its recorded binding signal; the sequence in question is `ACACTCCA`
0.398

Provide only the value of recorded binding signal for `GAGGTAAC`
0.191

Look up and state reported binding signal for `ACGCAATG`
0.452

Supply measured binding signal of `CTACGCCA` in your reply.
0.283

Give me measured binding signal, please, for this sequence: `ACGCAACT`
0.472

This collection of values is drawn from paper PMC4081100.
